# EXPERIMENT: Concentrations of DCDQ and DCDQ carbamoyl glucuronide (M6) in human plasma, LC/SRM (Table 34)
# Type: in vivo, healthy human subjects
# SETTINGS: human, plasma, oral, 300 mg, plasma, 300 mg (fasted), 24 hr, individual subjects; read-out: DCDQ concentration in plasma
ASSAY_METRIC: concentration at 24 h (ng/mL)

- MOLECULE: "c1cc2c3c(c1)[C@H]1CCC[C@H]1CN3CCNC2 [DCDQ, reference compound]"
  ASSAY_METRIC: "concentration at 24 h"
  UNIT_OF_MEASUREMENT: "ng/mL"
  NUMERIC_READOUT: 0.972

---

# EXPERIMENT: Rat plasma metabolite profiles after single oral 5 mg/kg [14C]DCDQ
# Assay type: in vivo, Sprague-Dawley rats
# SETTINGS: Sprague-Dawley, rat, plasma, female, 2 hr, mean n = 3, read-out: Estimated plasma concentration in rats
Structures can show the parent of a compound that is named as a salt.
ASSAY_METRIC: log10 of concentration at 2 h (log10 of the value in ng/mL)

- COMPOUND: "O=S(=O)(O)N1CCN2CC3=CCC=C3c3cccc(c32)C1 [Metabolite M14, di-dehydro DCDQ sulfamate]"
  log10 of concentration at 2 h: 1.40
- COMPOUND: "OC1CN2C[C@@H]3CCC[C@@H]3c3cccc(c32)CN1 (some centres unmarked) [Metabolite M1, hydroxy DCDQ]"
  log10 of concentration at 2 h: 1.10
- COMPOUND: "O=S(=O)(O)OC1CC[C@@H]2c3cccc4c3N(CCNC4)CC12 (some centres unmarked) [Metabolite M13, 17-hydroxy DCDQ sulfate]"
  log10 of concentration at 2 h: 1.22
- COMPOUND: "O=C1CC[C@@H]2c3cccc4c3N(CCNC4)C[C@H]12 [Metabolite M7, 17-keto DCDQ]"
  log10 of concentration at 2 h: 1.55
- COMPOUND: "OC1CNCc2cccc3c2N1C[C@@H]1CCC[C@H]31 (some centres unmarked) [Metabolite M10, hydroxy DCDQ]"
  log10 of concentration at 2 h: 1.55
- COMPOUND: "c1cc2c3c(c1)[C@H]1CCC[C@H]1CN3CCNC2 [DCDQ, reference compound]"
  log10 of concentration at 2 h: 2.12
- COMPOUND: "CC(=O)N1Cc2cccc3c2N(C[C@@H]2CCC[C@H]32)C(O)C1 (some centres unmarked) [Metabolite M11, acetylated hydroxy DCDQ]"
  log10 of concentration at 2 h: 1.61
- COMPOUND: "O=S(=O)(O)N1CCN2C[C@@H]3CCC[C@@H]3c3cccc(c32)C1 [Metabolite M12, DCDQ sulfamate]"
  log10 of concentration at 2 h: 1.53

---

# EXPERIMENT: Rat urinary excretion and metabolite profiles after single oral 5 mg/kg [14C]DCDQ
# Type: in vivo, Sprague-Dawley rats
# SETTINGS: 0-24 hr, oral 5 mg/kg, mean n = 3
Each entry below carries its recorded Percentage of dose for urinary metabolites in rats.
ASSAY_METRIC: Percentage of dose for urinary metabolites in rats (%)

- COMPOUND: "O=C1CC[C@@H]2c3cccc4c3N(CCNC4)C[C@H]12 [Metabolite M7, 17-keto DCDQ]"
  UNIT_OF_MEASUREMENT: "%"
  NUMERIC_READOUT: 6.60
- COMPOUND: "OC1CN2C[C@@H]3CCC[C@@H]3c3cccc(c32)CN1 (stereo partly shown) [Metabolite M1, hydroxy DCDQ]"
  UNIT_OF_MEASUREMENT: "%"
  NUMERIC_READOUT: 16.4
- COMPOUND: "OC1[C@@H]2CCC[C@@H]2c2cccc3c2N1CCNC3 (stereo partly shown) [Metabolite M2, hydroxy DCDQ]"
  UNIT_OF_MEASUREMENT: "%"
  NUMERIC_READOUT: 5.09
- COMPOUND: "OC1CNCc2cccc3c2N1C[C@@H]1CCC[C@H]31 (stereo partly shown) [Metabolite M10, hydroxy DCDQ]"
  UNIT_OF_MEASUREMENT: "%"
  NUMERIC_READOUT: 1.99
